- assayed_system: CYP3A4 (Homo sapiens)
- Sequence (P08684 whole entry): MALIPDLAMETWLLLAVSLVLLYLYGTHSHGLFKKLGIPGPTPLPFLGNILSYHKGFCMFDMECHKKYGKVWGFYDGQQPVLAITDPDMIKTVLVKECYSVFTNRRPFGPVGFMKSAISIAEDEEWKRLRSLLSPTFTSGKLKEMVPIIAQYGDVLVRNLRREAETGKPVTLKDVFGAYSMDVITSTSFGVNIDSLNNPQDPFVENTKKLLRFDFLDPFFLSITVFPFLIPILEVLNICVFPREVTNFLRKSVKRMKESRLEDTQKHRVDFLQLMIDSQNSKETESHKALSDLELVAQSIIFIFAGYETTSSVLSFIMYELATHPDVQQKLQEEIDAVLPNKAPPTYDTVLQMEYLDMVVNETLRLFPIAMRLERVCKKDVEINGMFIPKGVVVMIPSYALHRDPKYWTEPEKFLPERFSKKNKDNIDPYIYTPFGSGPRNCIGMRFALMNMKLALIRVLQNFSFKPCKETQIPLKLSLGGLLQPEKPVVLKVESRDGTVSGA
- protocol_text: Inhibition of human CYP3A4 assessed as conversion of testosterone to 6beta-hydroxytestosterone at 10 uM after 30 mins by HPLC analysis
- Format: ADME
- condition_info: probe testosterone
observable: inhibition at 0.5 h, 10 µM (%)

>>> quantitative_result("CONC(=O)Nc1ccc(-c2sc3c(c2CN(C)CCn2ccnn2)c(=O)n(-c2ccccc2)c(=O)n3Cc2c(F)cccc2F)cc1")
54
>>> quantitative_result("COCCN(C)Cc1c(-c2ccc(NC(=O)NOC)cc2)sc2c1c(=O)n(-c1ccc(OC)nc1)c(=O)n2Cc1c(F)cccc1F")
7
>>> quantitative_result("CCOCCn1c(=O)c2c(CN(C)CCOC)c(-c3ccc(NC(=O)NOC)cc3)sc2n(Cc2c(F)cccc2F)c1=O")
30

A = COCCN(C)Cc1c(-c2ccc(NC(=O)NOC)cc2)sc2c1c(=O)n(-c1ccccc1)c(=O)n2Cc1c(F)cccc1F
B = CONC(=O)Nc1ccc(-c2sc3c(c2CN(C)Cc2ccccn2)c(=O)n(-c2ccccc2)c(=O)n3Cc2c(F)cccc2F)cc1
Enquiry: Select one: A or B . Criterion: greater recorded inhibition at 0.5 h, 10 µM. The response must carry the label of the picked entry.
Return: B
(B: 33%, A: 14%)

P = CONC(=O)Nc1ccc(-c2sc3c(c2CN(C)Cc2cccnc2)c(=O)n(-c2ccccc2)c(=O)n3Cc2c(F)cccc2F)cc1
Q = CONC(=O)Nc1ccc(-c2sc3c(c2CN(C)CCN2CCCC2=O)c(=O)n(-c2ccccc2)c(=O)n3Cc2c(F)cccc2F)cc1
R = COCCN(C)Cc1c(-c2ccc(NC(=O)NOC)cc2)sc2c1c(=O)n(CC(C)(C)O)c(=O)n2Cc1c(F)cccc1F
Enquiry: Task for the reader: rank each entry by its inhibition at 0.5 h, 10 µM, from the minimum upward. # respond with the labels, arranged in the requested order
Return: R, Q, P
(R: 11%, Q: 45%, P: 66%)

A = CONC(=O)Nc1ccc(-c2sc3c(c2CN(C)C)c(=O)n(-c2ccc(OC)nc2)c(=O)n3Cc2c(F)cccc2F)cc1
B = COCCN(C)Cc1c(-c2ccc(NC(=O)NOC)cc2)sc2c1c(=O)n(-c1ccccn1)c(=O)n2Cc1c(F)cccc1F
Enquiry: Hi! Which is lower in terms of inhibition at 0.5 h, 10 µM, the first one A or the second one B ? Refer to your chosen entry by its label in the reply.
Return: B
(B: 10%, A: 17%)

I = COCCN(C)Cc1c(-c2ccc(NC(=O)NOC)cc2)sc2c1c(=O)n(-c1ccc(OC)cc1)c(=O)n2Cc1c(F)cccc1F
II = COCCN(C)Cc1c(-c2ccc(NC(=O)NOC)cc2)sc2c1c(=O)n(-c1ccc(F)cn1)c(=O)n2Cc1c(F)cccc1F
Enquiry: Of I and II , which shows the smaller inhibition at 0.5 h, 10 µM value? Response format: the label of the selected entry.
Return: II

Values compiled from ChEMBL document CHEMBL1799984.
